The values you see were collected from patent US20150322137A1.

targetOrSystem: F protein of human metapneumovirus strain JPS03-178 (type A2), on infectious virus (human metapneumovirus, strain JPS03-178 …)
assay: cell-based or functional assay
Listing of entries alongside the reported IC50, neutralizing activity (hMPV infection of LLC-MK2 cells; GraphPad Prism 6).
observationType: IC50, neutralizing activity (hMPV infection of LLC-MK2 cells; GraphPad Prism 6)

| binder | recordedMeasurement |
| --- | --- |
| EV046143 (antibody, human IgG1, kappa, V domains shown) VH: QVQLVQSGAEVQKPGSSVKVSCKTSGDTFNNYALSWVRQAPGQGPEWMGRIIPLVEMANYAQKFQGRVTITADKSTTTIYMELSSLRSEDTAMYYCARDGYQGGFPYFFDSWGQGTLVTVSS VL: EVVLTQSPGTLSLSPGERATLSCRASQSVSNYLAWYQQKPGQAPRLLISAASSRATGIPDRFGGSGSGADFTLTISRLEPEDFAVYYCQQYGFSPGTFGQGTKVEIRR | 0.0198 µg/mL |
| EV046120 (antibody, human IgG1, lambda, V domains shown) VH: EVQLVESGGGLVKPGGSLRLSCAASGFTFSSYSMNWVRQAPGKGLEWVSSISSSSSYIYYADSLKGRFTVSRDNAKKSLYLQMNSLRAEDTAVYYCARVDYGTNSEVGRFDPWGQGTLVTVSS VL: QSVLTQPPSVSGTPGQRVTISCTGSSSNIGAGYAVHWYQQLPGTAPKLLIYDSINRPSGVPDRFSGSKSGTSASLAITGLQTEDEADYYCHSYDRSLSGSVFGGGTKLTVLG | 0.0971 µg/mL |
| EV046150 (antibody, human IgG1, kappa, V domains shown) VH: RVQLVQSGAEVKKPGSSVRVSCKASGGTFSNYSISWVRQVPGQGLEWMGRIIPILPLSSYPQQFQGRVAITADKSSTTAYMELSSLRIEDTAIYYCARDALRPEGGYYYYYFDVWGTGTTVTVSS VL: EIELTQSPGTLSLSPGERATLSCRANQIIGDTSLAWYQQKPGQAPRLLIFGASSRATGIPDRFSGSGFGSDFTLTITSLEPEDFAVYYCQQYGSSPTFGQGTKVEIKR | 0.0298 µg/mL |
